target_system: T1, SEZ6 (293-SEZ6) (Homo sapiens, UniProt Q53EL9)
T1 construct: expressed in transfected cells; host or cells: HEK 293
T1 sequence (Q53EL9 20-994): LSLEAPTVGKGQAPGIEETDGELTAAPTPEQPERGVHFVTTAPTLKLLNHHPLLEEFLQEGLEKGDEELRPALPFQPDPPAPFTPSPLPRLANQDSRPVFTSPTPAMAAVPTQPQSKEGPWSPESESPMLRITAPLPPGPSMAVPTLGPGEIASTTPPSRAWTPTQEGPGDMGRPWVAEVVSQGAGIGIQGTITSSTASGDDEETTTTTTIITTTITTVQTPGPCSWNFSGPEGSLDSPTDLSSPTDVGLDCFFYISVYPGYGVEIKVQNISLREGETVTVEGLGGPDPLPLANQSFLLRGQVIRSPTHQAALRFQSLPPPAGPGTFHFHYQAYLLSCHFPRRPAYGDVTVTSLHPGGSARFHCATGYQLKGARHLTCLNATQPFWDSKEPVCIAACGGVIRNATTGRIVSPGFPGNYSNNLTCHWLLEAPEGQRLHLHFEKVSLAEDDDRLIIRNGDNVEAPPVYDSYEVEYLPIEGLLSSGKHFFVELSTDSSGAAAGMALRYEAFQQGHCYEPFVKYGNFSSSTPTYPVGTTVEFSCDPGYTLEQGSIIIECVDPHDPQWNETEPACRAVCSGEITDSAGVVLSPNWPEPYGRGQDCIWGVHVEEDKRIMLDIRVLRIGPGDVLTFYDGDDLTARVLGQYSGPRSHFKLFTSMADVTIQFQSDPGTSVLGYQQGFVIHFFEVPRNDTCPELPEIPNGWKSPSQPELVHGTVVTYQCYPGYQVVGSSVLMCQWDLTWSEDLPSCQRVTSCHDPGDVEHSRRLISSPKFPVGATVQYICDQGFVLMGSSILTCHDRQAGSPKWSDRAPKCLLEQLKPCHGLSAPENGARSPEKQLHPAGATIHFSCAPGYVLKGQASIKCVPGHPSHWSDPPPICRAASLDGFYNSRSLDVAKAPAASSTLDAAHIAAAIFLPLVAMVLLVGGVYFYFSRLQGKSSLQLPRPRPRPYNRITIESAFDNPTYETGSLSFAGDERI
assay_overview: Flow cytometry specificity on overexpressing 293 cells
Format: binding
condition_context: primary antibody 1 ug/ml, live cells on ice
readout: binding to 293-SEZ6 cells by flow cytometry

Please review the following examples before continuing.
molecule	readout_value
20C4: humanized anti-SEZ6L2 antibody, VH SEQ ID NO: 17, VL SEQ ID NO: 21 (antibody, V domains shown) VH: EVQLVESGGGLVQPGGSLRLSCAASGFTFTDYYMSWVRQAPGKGLEWVALIRNKANGYTTEYSASVKGRFTISRDNSKNSLYLQMNSLRAEDTAVYYCARNGLYGLFAYWGQGTLVTVSSA VL: DIVMTQTPLSIPVTPGEPASISCRSSTSLLESSGKHRLYWYLQKPGQSPQLLIYYMSNLASGVPDRFSGSGSGTDFTLKISRVEAEDFGVYYCMQSLEYPLTFGAGTKVEIKR	no detectable binding
3B6: human anti-SEZ6L2 antibody, VH SEQ ID NO: 109, VL SEQ ID NO: 113 (antibody, V domains shown) VH: QVQLVQSGAEVKKPGASVKVSCKASGYTFTAYYMHWVRQAPGQGLEWMGWINPNSGGTNYAQKFQGRVTMTRDTSIDTAYLDLSRLRSDDTAVYYCAKDSGYDWYFDIWGRGTLVTVSSA VL: EIVLTQSPATLSLSPGERATLSCRASQNISSYLAWYQQKPGQAPRLLIYDASNRATGIPARFSGSGSGTDFTLTISSLEPEDFAVFYCQQHSNWPPLTFGGGTKVEIKR	no detectable binding
2E4: humanized anti-SEZ6L2 antibody, VH SEQ ID NO: 25, VL SEQ ID NO: 29 (antibody, V domains shown) VH: EVKLVESGGVLVKPGGSLRLSCAASGFTFSKYAMSWVRQAPGKGLEWVSTISSGGSYTYYPDSVKGRFTISRDNARNSLYLQMNSLRAEDTAIYYCTREGGYDEGYAMDYWGQGTTVTVSSA VL: DIVMTQSPDSLAVSLGERATINCRSSQSLVHSYGNTYLHWYQQKPGQPPKLLIYKVSNRFSGVPDRFSGSGSGTDFTLTISSLQAEDVAVYFCSQSTHFRTFGGGTKVEIKR	no detectable binding
16H8: humanized anti-SEZ6L2 antibody, VH SEQ ID NO: 1, VL SEQ ID NO: 5 (antibody, V domains shown) VH: QIQLVQPGAEVKKPGASVKVSCKASGYTFTSYWMYWVRQAPGQGLEWMGAIYPRDSDTSYNQKFKGRVTMTRVTSTSTVYMELSSLRSEDTAVYYCTRGDYYYGSSYYAMDYWGQGTTVTVSSA VL: DIVMTQSPLSLPVTPGEPASISCSSSKSLLHSNGITYLYWYLQKPGQSPQLLIYRMSNLASGVPDRFSGSGSGTDFTLKISRVEAEDVGVYYCAQMLERPYTFGQGTKVEIKR	no detectable binding

Moving on to the next molecule.
## Input State the recorded binding to 293-SEZ6 cells by flow cytometry for this entry: 3E2: humanized anti-SEZ6L2 antibody, VH SEQ ID NO: 9, VL SEQ ID NO: 13 (antibody, V domains shown) VH: EVQLVESGGGLVQPGGSLKLSCAASGFSFNTITMNWVRQASGKGLEWVGRIRSKSNNYATYYADAVKDRFTISRDDSKNTAYLQMNSLKTEDTAVYYCVRGIFSGYVYAMDYWGQGTLVTVSSA VL: DVVMTQSPLSLPVTVGQPASISCRSSQSIVHSNGNTYLEWFQQRPGQSPRVLIYKVSNRFSGVPDRFSGSGSGTDFTLKISRVEAEDVGVYYCFQGSHVPYTFGGGTKLEIKR
## Output no detectable binding
